- assay_summary: concentration levels in plasma upon rectal administration (suppository), by biological assay
- Type: in vivo, rat (Wistar
- measurement_parameters: rat, plasma, 50 mg/kg, 4 hr; rectal suppository 50 mg/kg, fasted male Wistar rats; individual rats: b116 = No. 1, b117 = No. 2 (No. 3 not tested)

[
  {
    "smiles": "CO/N=C(\\C(=O)N[C@@H]1C(=O)N2C(C(=O)[O-])=C(C[n+]3ccn4nc(N)ccc43)CS[C@H]12)c1nsc(N)n1",
    "endpoint_unit": "ng/mL",
    "concentration at 4 h": 4300
  }
]
